Consider the following pIC50 values measured on UniProt P42336.
Sequence (P42336 whole entry, looked up): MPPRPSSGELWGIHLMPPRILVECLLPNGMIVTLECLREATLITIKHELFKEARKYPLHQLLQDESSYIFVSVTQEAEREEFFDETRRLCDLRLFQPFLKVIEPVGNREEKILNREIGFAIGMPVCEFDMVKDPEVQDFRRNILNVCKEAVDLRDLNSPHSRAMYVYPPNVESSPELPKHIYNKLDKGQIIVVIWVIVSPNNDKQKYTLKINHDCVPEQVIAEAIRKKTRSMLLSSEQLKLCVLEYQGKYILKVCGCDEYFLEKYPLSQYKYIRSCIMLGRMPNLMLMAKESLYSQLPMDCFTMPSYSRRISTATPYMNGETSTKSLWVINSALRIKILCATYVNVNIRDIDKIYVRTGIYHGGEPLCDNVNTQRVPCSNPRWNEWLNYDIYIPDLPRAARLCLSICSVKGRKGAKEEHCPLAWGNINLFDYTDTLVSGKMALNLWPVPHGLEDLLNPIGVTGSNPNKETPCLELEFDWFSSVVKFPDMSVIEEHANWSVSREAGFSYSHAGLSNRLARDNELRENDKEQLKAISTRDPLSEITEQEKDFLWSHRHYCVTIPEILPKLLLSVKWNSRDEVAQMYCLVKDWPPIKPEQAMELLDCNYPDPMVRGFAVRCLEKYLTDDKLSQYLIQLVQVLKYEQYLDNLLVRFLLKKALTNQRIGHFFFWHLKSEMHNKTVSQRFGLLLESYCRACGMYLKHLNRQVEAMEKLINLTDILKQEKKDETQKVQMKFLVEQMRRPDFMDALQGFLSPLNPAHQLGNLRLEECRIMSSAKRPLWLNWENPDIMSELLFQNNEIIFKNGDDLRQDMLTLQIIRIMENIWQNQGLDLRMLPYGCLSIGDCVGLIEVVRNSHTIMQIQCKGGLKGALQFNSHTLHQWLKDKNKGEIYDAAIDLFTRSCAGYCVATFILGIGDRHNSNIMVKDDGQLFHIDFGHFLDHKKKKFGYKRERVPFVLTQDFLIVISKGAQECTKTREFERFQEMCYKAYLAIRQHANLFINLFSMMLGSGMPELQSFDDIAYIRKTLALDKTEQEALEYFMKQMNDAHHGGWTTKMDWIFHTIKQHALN
pIC50: −log10 of the molar value.

[
  {
    "QUERY_SMILES": "Cc1cccc(C(=O)Nc2cc(-c3cccc4[nH]ccc34)cc3[nH]ncc23)n1",
    "SIGN": "=",
    "pIC50": 4.70
  },
  {
    "QUERY_SMILES": "Cc1nc(C(=O)Nc2cc(-c3cc(Cl)cc4[nH]ccc34)cc3[nH]ncc23)cs1",
    "SIGN": "=",
    "pIC50": 5.30
  },
  {
    "QUERY_SMILES": "C[C@@H]1CN(Cc2cnc(-c3cc(-c4cccc5[nH]ccc45)cc4[nH]ncc34)o2)C[C@H](C)O1",
    "SIGN": "=",
    "pIC50": 4.80
  },
  {
    "QUERY_SMILES": "Cc1nc(C(=O)Nc2cc(-c3cccc4[nH]ncc34)cc3[nH]ncc23)cs1",
    "SIGN": "<",
    "pIC50": 4.60
  },
  {
    "QUERY_SMILES": "O=C(Nc1cc(-c2cccc3[nH]ccc23)cc2[nH]ncc12)c1cccc(CN2CCCCC2)n1",
    "SIGN": "<",
    "pIC50": 4.60
  },
  {
    "QUERY_SMILES": "Cc1nc(C(=O)Nc2cc(-c3ccc(Cl)c(NS(C)(=O)=O)c3)cc3[nH]ncc23)cs1",
    "SIGN": "=",
    "pIC50": 4.80
  },
  {
    "QUERY_SMILES": "Cc1nc(C(=O)Nc2cc(-c3cnc(Cl)c(N(C)S(=O)(=O)c4ccccc4)c3)cc3[nH]ncc23)cs1",
    "SIGN": "<",
    "pIC50": 4.60
  },
  {
    "QUERY_SMILES": "COc1ncc(-c2cc(NC(=O)c3csc(C)n3)c3cn[nH]c3c2)cc1NS(C)(=O)=O",
    "SIGN": "=",
    "pIC50": 6.10
  },
  {
    "QUERY_SMILES": "O=C(Nc1cc(-c2cccc3[nH]ccc23)cc2[nH]ncc12)c1csc(-c2ccccc2)n1",
    "SIGN": "<",
    "pIC50": 4.60
  }
]
